Target: human orexin-2 receptor (Homo sapiens (Human), UniProt O43614)
Sequence (O43614 whole entry): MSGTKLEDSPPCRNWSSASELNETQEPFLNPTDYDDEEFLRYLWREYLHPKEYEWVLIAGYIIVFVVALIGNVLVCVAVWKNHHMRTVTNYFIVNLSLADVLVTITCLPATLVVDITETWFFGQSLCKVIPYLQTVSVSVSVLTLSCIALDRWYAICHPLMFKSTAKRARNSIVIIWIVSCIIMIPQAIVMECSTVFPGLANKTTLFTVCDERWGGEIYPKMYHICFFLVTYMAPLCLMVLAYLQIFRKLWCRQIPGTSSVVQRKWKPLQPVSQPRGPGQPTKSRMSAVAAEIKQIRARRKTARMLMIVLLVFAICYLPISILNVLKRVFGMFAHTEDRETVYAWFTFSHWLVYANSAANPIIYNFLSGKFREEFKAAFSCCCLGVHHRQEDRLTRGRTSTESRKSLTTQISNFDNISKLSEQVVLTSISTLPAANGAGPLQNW
Assay: Intracellular calcium measurement (FLIPR), CHO cells expressing human orexin-2 receptor, 3 nM orexin-A
Format: cell-based
Conditions: CHO cells expressing human orexin-2 receptor, FLIPR, 3 nM orexin-A; geometric mean if determined several times; read-out: IC50 OX2
experimental endpoint: pIC50
// field semantics: pIC50 = negative decimal log of concentration (mol/L)

Ask: Output measured pIC50 for this item: `COc1c(F)cccc1-c1noc([C@@H]2CCCN2C(=O)c2cc(C)ccc2-c2ccccn2)n1`
Result: 7.80

Ask: Return pIC50 (reported value) for this molecule: `Cc1ccc(-n2nccn2)c(C(=O)N2CCC[C@H]2c2nc(-c3cc(C)c(C)cn3)no2)c1`
Result: 6.62

Ask: Return pIC50 for the following molecule: `Cc1c(F)cccc1-c1noc([C@@H]2CCCN2C(=O)c2cc(C#N)ccc2-n2nccn2)n1`
Result: 6.53

Ask: # return recorded pIC50 for entry `Cc1ccc(-n2nccn2)c(C(=O)N2CCC[C@H]2c2cc(-c3ccccc3OC(F)(F)F)no2)c1`
Result: 8.00

Ask: Answer with the recorded pIC50 for the molecule listed here: `CCc1ccccc1-c1nc([C@@H]2CCCN2C(=O)c2ccc(Cl)cc2-n2nccn2)no1`
Result: 7.74

Ask: Let me know recorded pIC50 for `Cc1cccc(-c2nc([C@@H]3CCCN3C(=O)c3ccc(Cl)cc3-n3nccn3)no2)c1C` , thanks.
Result: 8.30

Ask: In one line, give reported pIC50 of the entry `Cc1cc(C)cc(-c2nnc([C@@H]3CCCN3C(=O)c3cc(C)ccc3-n3nccn3)[nH]2)c1` .
Result: 6.95

Ask: Quote pIC50 reported for `CCOc1ncccc1-c1noc([C@@H]2CCCN2C(=O)c2ccc(C)c(C)c2-n2nccn2)n1` please.
Result: 6.87

Ask: Quote pIC50 reported for `COc1cc(C(=O)N2CCC[C@H]2c2noc(-c3cccc(F)c3OC)n2)c(-n2nccn2)cc1C` please.
Result: 9.00

Ask: Specify reported pIC50 for the molecule shown: `COc1cc(C(=O)N2CCC[C@H]2c2nc(-c3ccccc3OC)no2)c(-n2nccn2)cc1C`
Result: 7.82

Ask: Find the measured pIC50 of `Cc1c(Cl)cccc1-c1noc([C@@H]2CCCN2C(=O)c2cc(F)ccc2-c2ccn[nH]2)n1` and report it.
Result: 7.47

Ask: Determine from records and report pIC50 for `Cc1ccc(-n2nccn2)c(C(=O)N2CCC[C@H]2c2nc(-c3ccccc3OC(F)F)no2)c1`
Result: 8.05

Ask: Complete the entry with pIC50 for `Cc1cc(-n2nccn2)c(C(=O)N2CCC[C@H]2c2noc(-c3cccc(Cl)c3C)n2)cc1Cl`
Result: 8.15

Ask: Name the recorded pIC50 of the item `CCOc1ccccc1-c1nc([C@@H]2CCCN2C(=O)c2cc(OC)c(C)cc2-n2nccn2)no1` in your answer.
Result: 9.00

Ask: Quickly give me recorded pIC50 for `COc1cc(C(=O)N2CCC[C@H]2c2nc(-c3cccc(F)c3OC)no2)c(-n2nccn2)cc1C`
Result: 8.70

Hello, the source for this data is patent US9493446B2, in case you need it.
